The reported measurements were obtained from paper PMC11277991.

# maps each entry to its pIC50
target: MurNAc-pentapeptide translocase (MraY) (Staphylococcus aureus); construct: recombinant His6-tagged MraY from S. aureus ATCC6538p (ca. 36 kDa), expressed in E. coli BL21(DE3); experiment: UMP-Glo luminescence glycosyltransferase assay with purified MraY
Sequence (Q2FZ93 whole entry): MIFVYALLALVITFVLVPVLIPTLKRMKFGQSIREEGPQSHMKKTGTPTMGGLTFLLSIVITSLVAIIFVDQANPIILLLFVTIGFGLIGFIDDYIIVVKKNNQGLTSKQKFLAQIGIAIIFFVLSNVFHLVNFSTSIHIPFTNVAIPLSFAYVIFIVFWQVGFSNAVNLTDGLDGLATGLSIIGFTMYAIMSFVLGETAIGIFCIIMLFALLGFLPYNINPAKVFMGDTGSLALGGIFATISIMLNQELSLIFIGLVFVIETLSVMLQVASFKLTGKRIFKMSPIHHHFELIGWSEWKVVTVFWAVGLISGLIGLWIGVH
pIC50: −log10 of the molar value.
quantity-measured: pIC50

[[record]]
compound = "CCCCCCCCCCCCC/C=C/C(=O)N[C@H]1[C@H](O[C@H]2O[C@H](CO)[C@@H](O)[C@H](O)[C@H]2NC(C)=O)O[C@H](C[C@@H](O)[C@H]2O[C@@H](n3ccc(=O)[nH]c3=O)[C@H](O)[C@@H]2O)[C@H](O)[C@@H]1O"
observed_result = 6.81

[[record]]
compound = "CC(=O)N[C@H]1[C@@H](O[C@@H]2O[C@H](C[C@@H](O)[C@H]3O[C@@H](n4ccc(=O)[nH]c4=O)[C@H](O)[C@@H]3O)[C@H](O)[C@H](O)[C@H]2NC(=O)/C=C/CCCCCCCCCCC(C)C)O[C@H](CO)[C@@H](O)[C@@H]1O"
observed_result = 6.85

[[record]]
compound = "CCCCCCCCCCCCCC/C=C/C(=O)N[C@H]1[C@H](O[C@H]2O[C@H](CO)[C@@H](O)[C@H](O)[C@H]2NC(C)=O)O[C@H](C[C@@H](O)[C@H]2O[C@@H](n3ccc(=O)[nH]c3=O)[C@H](O)[C@@H]2O)[C@H](O)[C@@H]1O"
observed_result = 6.61

[[record]]
compound = "CCC(C)CCCCCCCCCC/C=C/C(=O)N[C@H]1[C@H](O[C@H]2O[C@H](CO)[C@@H](O)[C@H](O)[C@H]2NC(C)=O)O[C@H](C[C@@H](O)[C@H]2O[C@@H](n3ccc(=O)[nH]c3=O)[C@H](O)[C@@H]2O)[C@H](O)[C@@H]1O (stereo partly shown) [compound 3, corynetoxin U17a]"
observed_result = 7.03

